Every entry's value here was drawn from PubChem BioAssay.

# Measurement Protocol: blockers of DNA damage checkpoint Chk1 activation – imaging, HeLa, hydroxyurea, phospho-Chk1 antibody, percent positive cells, primary screen (AID 1186)
# Details: hydroxyurea-induced phospho-Chk1 immunofluorescence imaging, higher = more signal
Metric Name: z-score

1) O=C1C[C@@](C(=O)O)(c2ccc([N+](=O)[O-])cc2)[C@@H](c2ccc(CO)cc2I)N1C1CCCCC1; -0.195
2) CN1C(=O)C2C=CC(C(O)c3ccc(Br)cc3)N(Nc3ccccc3)C2C1=O (stereo not drawn); 0.247
3) O=C1c2ccccc2[C@@]2(Cc3ccccc3N(Cc3ccccc3)C2=O)[C@H](c2ccc(CO)cc2)N1Cc1ccccc1C(F)(F)F; -0.21
4) C[N+](C)(C)CCCC[C@@H]1NC(=O)[C@@H]2C[C@H](C(=O)NCCCCCCNC(=O)CS)[C@H](c3cccc(OCCO)c3)N2C1=O; -0.38
5) C=C(C(=O)CC[C@H](OC(=O)c1cccnc1)c1ccccc1OCCO)C(C)C; 0.321
6) CCCCCN1CC=CC23O[C@@H]4C=CCCOC(=O)C4[C@H]2C(=O)N(CCCO)[C@@H]3C1=O (stereo partly drawn); -0.299
7) CCCC[C@H]1C[C@@H]1[C@@H]1N(P(=O)(c2ccccc2)c2ccccc2)[C@](CO)(c2ccccc2)CC12CC2; 0.335
8) CN1C(=O)C2C(C1=O)C1C=C(c3ccc(CO)cc3)C2C(C2CC2)N1Cc1sc2ccccc2c1Cl (stereo not drawn); 0.21
